Where do the numbers come from? From ChEMBL document CHEMBL1136781.

# system.under.test: ATP-dependent translocase ABCB1 (Homo sapiens)
# experiment.summary: TP_TRANSPORTER: inhibition of Calcein-AM efflux in MDR1-expressing LLC-PK1 cells
# Type: functional, cell-based
# run.parameters: llc-pk1
test.readout: pIC50
Give bare numbers, as −log10 of the molar value.

Problem: What pIC50 value was documented for this sequence, IVERMECTIN ?
Solution: 7.00

###

# experiment.summary: Partition coefficient (logP)
# Format: physicochemical
# run.parameters: octanol/water; read-out: logP
Can you tell me logP for the items I'm about to list?
Give bare numbers.

Problem: What logP value was documented for this compound, CC(C)c1nc(CN(C)C(=O)N[C@H](C(=O)N[C@@H](Cc2ccccc2)C[C@H](O)[C@H](Cc2ccccc2)NC(=O)OCc2cncs2)C(C)C)cs1 ?
Solution: 4.9

Problem: What logP value was documented for this compound, CCC(C)n1ncn(-c2ccc(N3CCN(c4ccc(OC[C@H]5CO[C@](Cn6cncn6)(c6ccc(Cl)cc6Cl)O5)cc4)CC3)cc2)c1=O (stereo not given in full) ?
Solution: 6.5

Problem: What logP value was documented for this compound, Clc1ccccc1C(c1ccccc1)(c1ccccc1)n1ccnc1 ?
Solution: 5.3

Problem: What logP value was documented for this compound, Cc1ncc2n1-c1ccc(Cl)cc1C(c1ccccc1F)=NC2 ?
Solution: 3.3

Problem: What logP value was documented for this compound, CC1(C)SSC(C)(C)[C@@H](NC(=O)[C@@H](N)Cc2ccc(O)cc2)C(=O)NCC(=O)N[C@@H](Cc2ccccc2)C(=O)N[C@H]1C(=O)O ?
Solution: 1

Return reported logP values for all items listed beneath this line.
1. C=C[C@H]1C[N@@]2CC[C@H]1C[C@@H]2[C@@H](O)c1ccnc2ccc(OC)cc12
2. COc1ccc(CCN2CCC(Nc3nc4ccccc4n3Cc3ccc(F)cc3)CC2)cc1
3. CC[C@H]1OC(=O)[C@H](C)[C@@H](O[C@H]2C[C@@](C)(OC)[C@@H](O)[C@H](C)O2)[C@H](C)[C@@H](O[C@@H]2O[C@H](C)C[C@H](N(C)C)[C@H]2O)[C@](C)(O)C[C@@H](C)C(=O)[C@H](C)[C@@H](O)[C@]1(C)O
4. COc1cc([C@@H]2c3cc4c(cc3[C@@H](O[C@@H]3O[C@@H]5CO[C@@H](C)O[C@H]5[C@H](O)[C@H]3O)[C@H]3COC(=O)[C@H]23)OCO4)cc(OC)c1O [ETOPOSIDE]
5. CC(C)(C)NC(=O)[C@@H]1C[C@@H]2CCCC[C@@H]2CN1C[C@@H](O)[C@H](Cc1ccccc1)NC(=O)[C@H](CC(N)=O)NC(=O)c1ccc2ccccc2n1
6. CC(C)(C)c1ccc(C(O)CCCN2CCC(C(O)(c3ccccc3)c3ccccc3)CC2)cc1 (stereo not given)

Solution:
1: 2.8; 2: 5.7; 3: 2.5; 4: 0.6; 5: 4.7; 6: 5.7

###

# system.under.test: ATP-dependent translocase ABCB1 (Mus musculus, UniProt P06795)
# Sequence (P06795 whole entry): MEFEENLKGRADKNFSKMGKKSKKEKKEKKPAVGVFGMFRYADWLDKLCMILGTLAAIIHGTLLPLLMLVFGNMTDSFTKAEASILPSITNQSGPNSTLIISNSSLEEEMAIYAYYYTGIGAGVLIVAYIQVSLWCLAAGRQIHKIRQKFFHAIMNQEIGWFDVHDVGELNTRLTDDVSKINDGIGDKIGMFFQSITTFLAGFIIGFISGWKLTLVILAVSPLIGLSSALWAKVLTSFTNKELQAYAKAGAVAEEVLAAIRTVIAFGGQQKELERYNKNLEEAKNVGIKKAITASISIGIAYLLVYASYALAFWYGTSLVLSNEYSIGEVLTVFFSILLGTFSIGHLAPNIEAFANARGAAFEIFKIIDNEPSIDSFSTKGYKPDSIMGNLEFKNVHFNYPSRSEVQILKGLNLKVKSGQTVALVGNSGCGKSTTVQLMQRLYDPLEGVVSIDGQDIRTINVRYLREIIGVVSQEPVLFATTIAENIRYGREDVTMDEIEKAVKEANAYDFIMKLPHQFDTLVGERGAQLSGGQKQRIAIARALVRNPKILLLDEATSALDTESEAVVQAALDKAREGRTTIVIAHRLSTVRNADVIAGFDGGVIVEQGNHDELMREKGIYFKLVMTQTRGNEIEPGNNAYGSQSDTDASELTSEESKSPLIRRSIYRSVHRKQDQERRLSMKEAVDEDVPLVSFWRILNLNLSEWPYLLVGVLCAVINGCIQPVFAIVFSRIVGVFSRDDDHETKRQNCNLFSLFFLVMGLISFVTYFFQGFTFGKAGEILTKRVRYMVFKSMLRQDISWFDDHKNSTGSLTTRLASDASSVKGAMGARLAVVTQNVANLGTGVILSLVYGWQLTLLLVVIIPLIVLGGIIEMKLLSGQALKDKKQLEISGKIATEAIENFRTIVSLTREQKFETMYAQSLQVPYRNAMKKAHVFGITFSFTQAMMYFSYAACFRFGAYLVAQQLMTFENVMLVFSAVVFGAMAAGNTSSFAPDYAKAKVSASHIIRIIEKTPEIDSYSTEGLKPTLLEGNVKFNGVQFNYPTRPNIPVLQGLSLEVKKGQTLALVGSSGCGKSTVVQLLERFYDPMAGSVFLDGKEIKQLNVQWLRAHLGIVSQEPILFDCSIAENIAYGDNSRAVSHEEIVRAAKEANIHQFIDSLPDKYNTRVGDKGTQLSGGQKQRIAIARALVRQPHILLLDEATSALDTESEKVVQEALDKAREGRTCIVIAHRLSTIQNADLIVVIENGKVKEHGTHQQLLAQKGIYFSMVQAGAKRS
# experiment.summary: TP_TRANSPORTER: inhibition of Calcein-AM efflux in Mdr1b-expressing LLC-PK1 cells
# Assay type: functional, cell-based
# run.parameters: llc-pk1
test.readout: pIC50
Give bare numbers, as −log10 of the molar value.

Problem: What pIC50 value was documented for this sequence, IVERMECTIN ?
Solution: 6.30

###

# system.under.test: ATP-dependent translocase ABCB1 (Mus musculus, UniProt P21447)
# Sequence (P21447 whole entry): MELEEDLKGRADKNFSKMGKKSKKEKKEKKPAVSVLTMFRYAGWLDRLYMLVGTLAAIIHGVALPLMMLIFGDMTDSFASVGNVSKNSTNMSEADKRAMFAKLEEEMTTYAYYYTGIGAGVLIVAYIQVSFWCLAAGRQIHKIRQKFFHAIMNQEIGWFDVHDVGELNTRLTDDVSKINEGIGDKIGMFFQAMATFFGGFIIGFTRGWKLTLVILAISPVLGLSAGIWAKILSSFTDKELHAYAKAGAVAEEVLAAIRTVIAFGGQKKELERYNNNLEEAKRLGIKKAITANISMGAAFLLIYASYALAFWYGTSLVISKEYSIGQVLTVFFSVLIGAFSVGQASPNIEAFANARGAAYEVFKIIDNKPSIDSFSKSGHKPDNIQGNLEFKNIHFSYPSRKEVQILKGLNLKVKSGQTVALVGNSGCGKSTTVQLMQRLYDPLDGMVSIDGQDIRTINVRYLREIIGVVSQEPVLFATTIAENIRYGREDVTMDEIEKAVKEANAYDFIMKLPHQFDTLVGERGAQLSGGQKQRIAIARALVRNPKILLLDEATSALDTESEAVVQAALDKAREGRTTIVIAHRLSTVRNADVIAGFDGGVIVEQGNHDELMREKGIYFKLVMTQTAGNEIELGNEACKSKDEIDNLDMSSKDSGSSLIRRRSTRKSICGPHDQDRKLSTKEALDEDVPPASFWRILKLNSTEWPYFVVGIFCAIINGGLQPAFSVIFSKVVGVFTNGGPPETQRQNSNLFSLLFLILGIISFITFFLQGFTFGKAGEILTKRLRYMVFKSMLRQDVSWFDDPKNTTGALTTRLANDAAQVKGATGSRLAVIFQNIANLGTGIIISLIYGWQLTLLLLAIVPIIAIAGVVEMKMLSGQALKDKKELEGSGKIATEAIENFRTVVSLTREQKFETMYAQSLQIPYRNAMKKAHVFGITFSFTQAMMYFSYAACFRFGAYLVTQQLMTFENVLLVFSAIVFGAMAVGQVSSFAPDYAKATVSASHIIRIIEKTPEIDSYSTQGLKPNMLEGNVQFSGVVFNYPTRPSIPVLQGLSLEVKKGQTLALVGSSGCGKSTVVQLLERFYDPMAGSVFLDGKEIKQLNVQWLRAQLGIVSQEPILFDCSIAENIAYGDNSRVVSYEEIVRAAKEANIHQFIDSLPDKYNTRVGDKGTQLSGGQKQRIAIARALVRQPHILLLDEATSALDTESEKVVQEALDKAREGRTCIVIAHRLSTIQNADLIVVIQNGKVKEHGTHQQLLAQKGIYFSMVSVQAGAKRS
# experiment.summary: TP_TRANSPORTER: inhibition of Calcein-AM efflux in Mdr1a-expressing LLC-PK1 cells
# Assay type: functional, cell-based
# run.parameters: llc-pk1
test.readout: IC50 (nM)
Answers are plain numbers, in nM.

Problem: What IC50 value was documented for this sequence, IVERMECTIN ?
Solution: 500

###

# system.under.test: ATP-dependent translocase ABCB1 (Mus musculus, UniProt P21447)
# experiment.summary: TP_TRANSPORTER: inhibition of Calcein-AM efflux in Mdr1a-expressing LLC-PK1 cells
# Format: functional, cell-based
test.readout: IC50

Below: 3 compounds and their reported IC50.
Problem: What IC50 value was documented for this compound, Cc1c(O)cccc1C(=O)N[C@@H](CSc1ccccc1)[C@H](O)CN1C[C@H]2CCCC[C@H]2C[C@H]1C(=O)NC(C)(C)C ?
Solution: 2.3 µM

Problem: What IC50 value was documented for this compound, CC1(C)SSC(C)(C)[C@@H](NC(=O)[C@@H](N)Cc2ccc(O)cc2)C(=O)NCC(=O)N[C@@H](Cc2ccccc2)C(=O)N[C@H]1C(=O)O ?
Solution: > 50 µM

Problem: What IC50 value was documented for this compound, CNC(=C[N+](=O)[O-])NCCSCc1ccc(CN(C)C)o1 ?
Solution: > 50 µM

Turning to the following compound.
Problem: What IC50 value was documented for this compound, C=C[C@H]1C[N@@]2CC[C@H]1C[C@@H]2[C@@H](O)c1ccnc2ccc(OC)cc12 ?
Solution: 13 µM

###

Can you tell me pIC50 for the items I'm about to list?
# system.under.test: ATP-dependent translocase ABCB1 (Mus musculus, UniProt P06795)
# experiment.summary: TP_TRANSPORTER: inhibition of Calcein-AM efflux in Mdr1b-expressing LLC-PK1 cells
# Type: functional, cell-based
Give bare numbers, as −log10 of the molar value.

Below: 4 compounds and their reported pIC50.
Problem: What pIC50 value was documented for this compound, CC[C@]1(O)C[C@@H]2CN(CCc3c([nH]c4ccccc34)[C@@](C(=O)OC)(c3cc4c(cc3OC)N(C)[C@H]3[C@@](O)(C(=O)OC)[C@H](OC(C)=O)[C@]5(CC)C=CCN6CC[C@]43[C@@H]65)C2)C1 [VINBLASTINE] ?
Solution: 5.10

Problem: What pIC50 value was documented for this compound, Cc1ncc2n1-c1ccc(Cl)cc1C(c1ccccc1F)=NC2 [MIDAZOLAM] ?
Solution: 4.48

Problem: What pIC50 value was documented for this compound, COc1ccc(CCN2CCC(Nc3nc4ccccc4n3Cc3ccc(F)cc3)CC2)cc1 [ASTEMIZOLE] ?
Solution: 5.77

Problem: What pIC50 value was documented for this compound, COC(=O)C1=C(C)NC(C)=C(C(=O)OCCN(C)Cc2ccccc2)C1c1cccc([N+](=O)[O-])c1 (configuration not stated) [NICARDIPINE] ?
Solution: 5.10

***
Problem: What pIC50 value was documented for this compound, C=C[C@H]1C[N@@]2CC[C@H]1C[C@@H]2[C@@H](O)c1ccnc2ccc(OC)cc12 [QUINIDINE] ?
Solution: 5.00

###

Can you tell me Activity for the items I'm about to list?
# system.under.test: ATP-dependent translocase ABCB1 (Homo sapiens, UniProt P08183)
# Sequence (P08183 whole entry): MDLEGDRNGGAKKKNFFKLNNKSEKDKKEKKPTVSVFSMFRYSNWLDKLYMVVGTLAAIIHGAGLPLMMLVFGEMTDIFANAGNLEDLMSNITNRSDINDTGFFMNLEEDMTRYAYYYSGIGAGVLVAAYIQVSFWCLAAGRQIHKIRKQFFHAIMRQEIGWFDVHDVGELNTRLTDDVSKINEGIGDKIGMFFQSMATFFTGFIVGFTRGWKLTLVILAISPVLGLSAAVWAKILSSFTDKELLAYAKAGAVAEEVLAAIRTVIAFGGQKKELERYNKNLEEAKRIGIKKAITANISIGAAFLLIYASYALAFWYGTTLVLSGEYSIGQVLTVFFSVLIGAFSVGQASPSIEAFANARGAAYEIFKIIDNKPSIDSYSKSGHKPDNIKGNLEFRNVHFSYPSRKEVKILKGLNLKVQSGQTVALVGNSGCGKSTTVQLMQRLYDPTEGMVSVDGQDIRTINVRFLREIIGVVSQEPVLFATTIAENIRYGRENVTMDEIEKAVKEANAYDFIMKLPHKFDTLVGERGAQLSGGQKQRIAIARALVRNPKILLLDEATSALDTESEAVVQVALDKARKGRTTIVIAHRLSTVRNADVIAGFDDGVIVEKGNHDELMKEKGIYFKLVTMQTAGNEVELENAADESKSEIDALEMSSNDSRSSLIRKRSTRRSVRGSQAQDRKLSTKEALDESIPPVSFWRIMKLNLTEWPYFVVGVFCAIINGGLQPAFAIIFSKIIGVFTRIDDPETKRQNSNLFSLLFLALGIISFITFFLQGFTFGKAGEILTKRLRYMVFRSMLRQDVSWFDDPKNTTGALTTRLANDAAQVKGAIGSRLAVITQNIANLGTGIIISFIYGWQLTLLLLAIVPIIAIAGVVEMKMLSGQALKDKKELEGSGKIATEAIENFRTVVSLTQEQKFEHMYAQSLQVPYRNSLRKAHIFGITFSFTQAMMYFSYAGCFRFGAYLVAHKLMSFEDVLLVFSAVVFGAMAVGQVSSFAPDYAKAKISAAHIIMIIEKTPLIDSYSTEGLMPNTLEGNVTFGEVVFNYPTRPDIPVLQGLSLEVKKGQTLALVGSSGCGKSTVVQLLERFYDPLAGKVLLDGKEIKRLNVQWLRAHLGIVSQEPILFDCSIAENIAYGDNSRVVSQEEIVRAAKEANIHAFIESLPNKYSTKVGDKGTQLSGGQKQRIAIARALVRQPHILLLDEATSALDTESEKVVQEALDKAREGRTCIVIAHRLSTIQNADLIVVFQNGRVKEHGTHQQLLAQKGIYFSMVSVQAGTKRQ
# experiment.summary: Inhibition of P-glycoprotein using ATPase in MDR1 membranes
# Type: functional, cell membranes
Give bare numbers, in nmol/min/mg.

Below: 3 molecules and their reported Activity.
Problem: What Activity value was documented for this molecule, COc1cc([C@@H]2c3cc4c(cc3[C@@H](O[C@@H]3O[C@@H]5CO[C@@H](C)O[C@H]5[C@H](O)[C@H]3O)[C@H]3COC(=O)[C@H]23)OCO4)cc(OC)c1O [ETOPOSIDE] ?
Solution: -0.2

Problem: What Activity value was documented for this molecule, COCC(=O)O[C@]1(CCN(C)CCCc2nc3ccccc3[nH]2)CCc2cc(F)ccc2[C@@H]1C(C)C ?
Solution: 8.9

Problem: What Activity value was documented for this molecule, CC[C@H]1OC(=O)[C@H](C)[C@@H](O[C@H]2C[C@@](C)(OC)[C@@H](O)[C@H](C)O2)[C@H](C)[C@@H](O[C@@H]2O[C@H](C)C[C@H](N(C)C)[C@H]2O)[C@](C)(O)C[C@@H](C)C(=O)[C@H](C)[C@@H](O)[C@]1(C)O ?
Solution: 4

Return reported Activity values for all items listed beneath this line.
1. C[C@@H]1C[C@H]2[C@@H]3CCC4=CC(=O)C=C[C@]4(C)[C@@]3(F)[C@@H](O)C[C@]2(C)[C@@]1(O)C(=O)CO
2. CC(C)(C)NC(=O)[C@@H]1C[C@@H]2CCCC[C@@H]2CN1C[C@@H](O)[C@H](Cc1ccccc1)NC(=O)[C@H](CC(N)=O)NC(=O)c1ccc2ccccc2n1
3. O=c1[nH]c2ccccc2n1C1CCN(CCCC(c2ccc(F)cc2)c2ccc(F)cc2)CC1 [PIMOZIDE]

Solution:
1: 4; 2: 30; 3: 11

###

# system.under.test: ATP-dependent translocase ABCB1 (Mus musculus, UniProt P06795)
# experiment.summary: Inhibition of P-glycoprotein, mouse L-mdr1b expressed in LLC-PK1 epithelial cells using calcein-AM polarisation assay
# Assay type: functional, cell-based
# run.parameters: llc-pk1
test.readout: pIC50
Answers are plain numbers, as −log10 of the molar value.

Problem: What pIC50 value was documented for this sequence, IVERMECTIN ?
Solution: 6.30
